Assay: Luminescence Cell-Based Dose Response HTS to Identify Activators of Luciferase Translation or Activity in H4 […] Cells. [Related pubchem assays: 1829 (Project Summary), 1814 (Primary HTS)]
Format: functional
Calls of active or inactive are those of the source.
measurement_label: EC50

>>> df
                                   molecule  measurement_label                   result
0              Brc1ccccc1OCCCCn1cnc2ccccc21               EC50         16.9 µM (active)
1  Cc1nc(-c2ccc(Cl)cc2)sc1C1(C)CC(c2ccccc2)=NO1 (stereo not given)               EC50          9.8 µM (active)
2  COc1ccc(CCn2c(-c3ccccc3)nc3c(c(=O)c4ccccc4n3C)c2=O)cc1               EC50   24.2 µM (inconclusive)
3  COC(=O)c1c(-c2cccnc2)csc1NC(=O)c1cc(C)on1               EC50  < 0.1 µM (inconclusive)
4         CCOC(=O)c1csc(-c2ccc3c(c2)CCO3)n1               EC50        < 0.1 µM (active)

---

Hi! I'm sharing some IC50 results obtained with Protein-tyrosine kinase 2-beta (Homo sapiens, UniProt Q14289).
Sequence (Q14289 whole entry): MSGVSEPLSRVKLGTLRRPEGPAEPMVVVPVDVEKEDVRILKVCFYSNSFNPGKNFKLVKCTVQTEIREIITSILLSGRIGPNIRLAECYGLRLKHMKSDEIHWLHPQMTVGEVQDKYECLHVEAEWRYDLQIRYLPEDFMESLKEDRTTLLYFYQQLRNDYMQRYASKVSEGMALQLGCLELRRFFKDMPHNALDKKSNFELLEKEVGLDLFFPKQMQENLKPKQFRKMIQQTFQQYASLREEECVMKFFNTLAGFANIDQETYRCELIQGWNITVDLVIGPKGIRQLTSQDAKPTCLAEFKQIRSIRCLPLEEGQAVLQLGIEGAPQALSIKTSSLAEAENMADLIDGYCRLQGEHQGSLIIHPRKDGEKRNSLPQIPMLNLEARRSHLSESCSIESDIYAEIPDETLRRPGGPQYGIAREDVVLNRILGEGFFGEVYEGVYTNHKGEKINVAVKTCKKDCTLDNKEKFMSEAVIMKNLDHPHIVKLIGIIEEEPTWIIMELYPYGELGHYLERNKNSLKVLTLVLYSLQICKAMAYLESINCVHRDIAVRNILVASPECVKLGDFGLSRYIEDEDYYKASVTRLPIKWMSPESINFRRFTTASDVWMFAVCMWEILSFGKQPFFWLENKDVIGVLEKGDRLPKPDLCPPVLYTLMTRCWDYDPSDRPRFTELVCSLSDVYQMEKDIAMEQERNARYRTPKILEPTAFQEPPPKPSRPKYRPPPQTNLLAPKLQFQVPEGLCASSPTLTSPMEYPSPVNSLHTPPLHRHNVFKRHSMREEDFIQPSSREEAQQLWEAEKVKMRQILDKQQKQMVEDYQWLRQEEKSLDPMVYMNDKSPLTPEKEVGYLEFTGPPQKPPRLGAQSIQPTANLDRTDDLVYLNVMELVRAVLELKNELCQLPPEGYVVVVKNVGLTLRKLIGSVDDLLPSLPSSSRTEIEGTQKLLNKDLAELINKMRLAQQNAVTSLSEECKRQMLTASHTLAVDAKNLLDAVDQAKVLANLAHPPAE
Calls of active or inactive are those of the source.
measurement_label: IC50

                                 cpd_smiles                               test_target                  result
0  CCOC(=O)CNC(=O)c1sc2ncnc(N3CCc4ccccc4C3)c2c1C  Protein-tyrosine kinase 2-beta (Homo sapiens, UniProt Q14289)    41.7 µM (not active)
1                CCC1=NNc2cccc3c(OC)ccc1c23  Protein-tyrosine kinase 2-beta (Homo sapiens, UniProt Q14289)        2.15 µM (active)
2     Cc1ccc2nsnc2c1S(=O)(=O)Nc1cccc2nsnc12  Protein-tyrosine kinase 2-beta (Homo sapiens, UniProt Q14289)         6.7 µM (active)
3  Cc1ccccc1NC1=C/C(=N\S(=O)(=O)c2cccs2)c2ccccc2C1=O  Protein-tyrosine kinase 2-beta (Homo sapiens, UniProt Q14289)  > 69.5 µM (not active)

---

Biological target: Metabotropic glutamate receptor 5 (Rattus norvegicus, UniProt P31424)
Test: Identification of a glycine sulfonamide based non-MPEP site positive allosteric potentiator (PAM) of mGlu5 (calcium_assay).
Type: functional
measurement_label: EC50 (nM)

                                 cpd_smiles  quantitative_readout
0  CS(=O)(=O)N(CC(=O)Nc1ccccn1)c1cc(C(F)(F)F)ccc1Cl                    85

---

Target: UniProt P00734
Assay: Thrombin 1536 HTS Dose Response Confirmation. [Related pubchem assays: 1046 (Thrombin 1536 HTS; hits were confirmed in this assay)]
Assay type: functional
The source made the active and inactive calls.
measurement_label: IC50

                                   compound     test_target                result
0         O=C(Cc1cccs1)Nc1nnc(CCc2ccccc2)s1  UniProt P00734      25.4 µM (active)
1  CCn1c(C)nc2cc(C(=O)NN=C(S)Nc3ccc(C)cc3)ccc21  UniProt P00734  > 50 µM (not active)
2  COC(=O)c1ccccc1NC(=O)C1CC(=O)N(c2ccc(F)cc2)C1 (stereo not given)  UniProt P00734  > 50 µM (not active)
3     CCOC(=O)C(/C=N/c1cccc(C)c1C)=C(/O)OCC  UniProt P00734  > 50 µM (not active)
4      CCCC(=O)n1nc(-c2cccnc2)nc1NCc1ccccc1  UniProt P00734   0.00538 µM (active)

---

Target: Protein skinhead-1 (Caenorhabditis elegans, UniProt P34707)
Sequence (P34707 whole entry): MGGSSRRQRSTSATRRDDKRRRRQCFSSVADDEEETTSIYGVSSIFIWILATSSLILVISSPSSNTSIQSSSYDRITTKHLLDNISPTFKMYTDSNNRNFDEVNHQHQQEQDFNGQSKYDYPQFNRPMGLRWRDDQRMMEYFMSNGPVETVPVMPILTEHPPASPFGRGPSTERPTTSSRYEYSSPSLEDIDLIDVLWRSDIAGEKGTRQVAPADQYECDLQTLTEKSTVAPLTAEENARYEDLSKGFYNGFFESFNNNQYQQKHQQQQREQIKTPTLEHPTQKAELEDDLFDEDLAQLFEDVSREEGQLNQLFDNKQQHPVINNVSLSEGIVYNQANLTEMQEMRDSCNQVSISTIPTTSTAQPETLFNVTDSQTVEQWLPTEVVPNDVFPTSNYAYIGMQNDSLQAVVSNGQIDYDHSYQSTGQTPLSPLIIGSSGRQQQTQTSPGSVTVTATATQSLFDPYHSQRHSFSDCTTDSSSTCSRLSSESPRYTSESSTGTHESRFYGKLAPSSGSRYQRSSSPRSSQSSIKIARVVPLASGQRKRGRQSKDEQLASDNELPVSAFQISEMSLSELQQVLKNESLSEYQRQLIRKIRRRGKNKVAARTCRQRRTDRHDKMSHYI
Assay type: functional
Active and inactive are the calls of the source.
Outcomes: active, inactive

                                   molecule                               test_target  category
0  CCCC(=O)N1CCN(c2ccc(NC(=O)c3cc4ccccc4o3)cc2)CC1  Protein skinhead-1 (Caenorhabditis elegans, UniProt P34707)  inactive
1  O=C(CCS(=O)(=O)c1cccc2nsnc12)N1CCN(c2ccccc2F)CC1  Protein skinhead-1 (Caenorhabditis elegans, UniProt P34707)  inactive
2           CCn1nccc1C(=O)Nc1ccc(Cl)c(Cl)c1  Protein skinhead-1 (Caenorhabditis elegans, UniProt P34707)    active
3  COC(=O)C12OCC34C(CC5C(C)=C(O)C(=O)CC5(C)C3C(O)C1O)OC(=O)C(OC(=O)/C=C(\C)C(C)C)C24 (stereo not given)  Protein skinhead-1 (Caenorhabditis elegans, UniProt P34707)    active
4  Cc1ccc(C(=O)NC(=S)Nc2ccccc2C(F)(F)F)c(C)c1  Protein skinhead-1 (Caenorhabditis elegans, UniProt P34707)  inactive

---

Biological target: Heat shock factor protein 1 (Mus musculus, UniProt P38532)
Sequence (P38532 whole entry): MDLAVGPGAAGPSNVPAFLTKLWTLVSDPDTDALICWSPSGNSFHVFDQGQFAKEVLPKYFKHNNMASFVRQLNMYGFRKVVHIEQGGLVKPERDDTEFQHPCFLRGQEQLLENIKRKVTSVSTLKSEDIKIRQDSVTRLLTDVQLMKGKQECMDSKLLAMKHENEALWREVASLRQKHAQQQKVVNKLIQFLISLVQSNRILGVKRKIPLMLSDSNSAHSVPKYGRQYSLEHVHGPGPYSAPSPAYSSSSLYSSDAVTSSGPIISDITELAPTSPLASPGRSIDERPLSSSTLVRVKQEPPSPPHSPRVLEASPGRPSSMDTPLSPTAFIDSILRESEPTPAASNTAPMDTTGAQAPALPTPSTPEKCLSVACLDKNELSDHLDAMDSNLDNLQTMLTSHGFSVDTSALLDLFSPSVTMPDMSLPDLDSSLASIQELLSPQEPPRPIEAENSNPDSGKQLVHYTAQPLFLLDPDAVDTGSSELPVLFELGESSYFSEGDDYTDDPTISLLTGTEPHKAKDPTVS
Experiment: inhibition of MG132-induced HSE-luciferase signal, confirmation, cell-based, NIH3T3, luminescence, dose retest (AID 2382);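 further: NIH3T3 fibroblasts with HSF1-driven luciferase reporter stressed by proteasome inhibitor MG132; luminescence from HSF1-driven luciferase expression after 8 hours of MG132 stress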
Format: functional
Calls of active or inactive are those of the source.
measurement_label: EC50

                                   compound  measurement_label                 result
0  O=C(COC(=O)CCc1nc(O)c2ccccc2n1)Nc1c(Cl)cccc1C(F)(F)F               EC50  > 195 µM (not active)
1  CCOC(=O)c1ccc(NC(=O)CC2COc3ccccc3O2)cc1 (stereo unspecified)               EC50  > 195 µM (not active)
2    Cc1cc(N2CCC(C)CC2)n2ncc(-c3ccccc3)c2n1               EC50     < 0.16 µM (active)
3                    O=C(O)CSc1ccccc1C(=O)O               EC50  > 195 µM (not active)
4  CCCOc1ccc(C(=O)C2=C(O)C(=O)N(CCN(C)C)C2c2ccc(O)c(OC)c2)cc1 (stereo unspecified)               EC50  > 195 µM (not active)
5  COc1ccccc1/C=C/CN1CCC(Oc2cc(C(=O)NC3CC3)ccc2OC)CC1               EC50  > 195 µM (not active)

---

IC50 overview
Biological target: Voltage-gated N-type calcium channel alpha-1B subunit/Amyloid beta A4 precursor protein-binding family A member 1 (Homo sapiens, UniProt Q00975+Q02410)
Sequence (Q00975 whole entry): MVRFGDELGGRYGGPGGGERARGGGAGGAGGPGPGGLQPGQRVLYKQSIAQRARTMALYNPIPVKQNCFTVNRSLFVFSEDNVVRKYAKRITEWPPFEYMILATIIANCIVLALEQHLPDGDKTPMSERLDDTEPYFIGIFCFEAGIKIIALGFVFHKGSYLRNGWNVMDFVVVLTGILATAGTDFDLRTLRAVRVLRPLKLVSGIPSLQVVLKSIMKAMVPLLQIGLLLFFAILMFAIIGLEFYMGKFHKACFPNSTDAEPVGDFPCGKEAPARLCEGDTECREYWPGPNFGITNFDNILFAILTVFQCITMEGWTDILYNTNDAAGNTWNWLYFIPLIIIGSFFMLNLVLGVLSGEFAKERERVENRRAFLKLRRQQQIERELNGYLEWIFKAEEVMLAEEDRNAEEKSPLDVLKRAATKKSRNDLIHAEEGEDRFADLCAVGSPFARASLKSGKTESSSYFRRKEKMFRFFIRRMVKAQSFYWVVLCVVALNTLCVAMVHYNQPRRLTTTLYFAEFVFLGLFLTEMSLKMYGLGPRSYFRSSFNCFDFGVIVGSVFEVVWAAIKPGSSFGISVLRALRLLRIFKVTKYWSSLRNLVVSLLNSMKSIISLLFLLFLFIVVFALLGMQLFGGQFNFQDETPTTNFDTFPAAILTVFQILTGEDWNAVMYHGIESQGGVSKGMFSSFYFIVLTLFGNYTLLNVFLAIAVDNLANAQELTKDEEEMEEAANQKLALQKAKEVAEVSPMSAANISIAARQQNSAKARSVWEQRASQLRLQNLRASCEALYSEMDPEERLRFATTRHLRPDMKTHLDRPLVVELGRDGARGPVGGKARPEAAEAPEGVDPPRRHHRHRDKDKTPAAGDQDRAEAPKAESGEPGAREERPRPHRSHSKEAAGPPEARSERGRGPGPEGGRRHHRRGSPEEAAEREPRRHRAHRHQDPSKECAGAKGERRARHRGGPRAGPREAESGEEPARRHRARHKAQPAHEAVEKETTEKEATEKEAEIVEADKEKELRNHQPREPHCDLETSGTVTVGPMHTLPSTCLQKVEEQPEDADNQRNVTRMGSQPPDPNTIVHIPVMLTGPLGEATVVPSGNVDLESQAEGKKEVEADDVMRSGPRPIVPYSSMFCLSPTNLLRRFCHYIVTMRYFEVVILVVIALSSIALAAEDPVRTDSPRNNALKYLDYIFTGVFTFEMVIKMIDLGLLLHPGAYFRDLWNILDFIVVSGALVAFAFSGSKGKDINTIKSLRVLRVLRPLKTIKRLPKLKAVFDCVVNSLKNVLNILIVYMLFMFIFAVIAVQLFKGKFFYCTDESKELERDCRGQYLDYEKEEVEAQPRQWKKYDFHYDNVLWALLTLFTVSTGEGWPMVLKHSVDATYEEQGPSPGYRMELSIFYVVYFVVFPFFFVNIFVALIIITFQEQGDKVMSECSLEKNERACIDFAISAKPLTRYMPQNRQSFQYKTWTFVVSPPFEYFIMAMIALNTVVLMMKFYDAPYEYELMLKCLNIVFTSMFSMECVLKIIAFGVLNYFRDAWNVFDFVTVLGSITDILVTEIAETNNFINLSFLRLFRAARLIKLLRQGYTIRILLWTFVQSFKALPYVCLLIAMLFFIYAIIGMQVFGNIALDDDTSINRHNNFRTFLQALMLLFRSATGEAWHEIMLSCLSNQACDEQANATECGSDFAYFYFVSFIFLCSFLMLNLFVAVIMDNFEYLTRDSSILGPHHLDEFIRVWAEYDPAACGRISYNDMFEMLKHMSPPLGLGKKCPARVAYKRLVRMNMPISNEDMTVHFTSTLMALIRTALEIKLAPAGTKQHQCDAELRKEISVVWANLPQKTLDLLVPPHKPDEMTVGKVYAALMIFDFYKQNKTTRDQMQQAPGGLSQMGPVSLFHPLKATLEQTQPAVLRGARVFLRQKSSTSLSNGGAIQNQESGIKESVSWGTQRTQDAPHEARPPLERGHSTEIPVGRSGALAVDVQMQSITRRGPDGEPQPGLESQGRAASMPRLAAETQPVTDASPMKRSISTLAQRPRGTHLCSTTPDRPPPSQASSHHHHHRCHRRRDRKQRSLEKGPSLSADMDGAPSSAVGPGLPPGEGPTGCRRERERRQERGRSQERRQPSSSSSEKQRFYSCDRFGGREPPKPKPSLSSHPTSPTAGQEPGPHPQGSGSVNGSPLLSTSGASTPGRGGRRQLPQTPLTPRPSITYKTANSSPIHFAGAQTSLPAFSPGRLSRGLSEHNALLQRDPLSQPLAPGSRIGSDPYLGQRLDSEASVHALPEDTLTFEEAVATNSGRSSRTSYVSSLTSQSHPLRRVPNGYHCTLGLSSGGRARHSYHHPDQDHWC
Sequence (Q02410 whole entry): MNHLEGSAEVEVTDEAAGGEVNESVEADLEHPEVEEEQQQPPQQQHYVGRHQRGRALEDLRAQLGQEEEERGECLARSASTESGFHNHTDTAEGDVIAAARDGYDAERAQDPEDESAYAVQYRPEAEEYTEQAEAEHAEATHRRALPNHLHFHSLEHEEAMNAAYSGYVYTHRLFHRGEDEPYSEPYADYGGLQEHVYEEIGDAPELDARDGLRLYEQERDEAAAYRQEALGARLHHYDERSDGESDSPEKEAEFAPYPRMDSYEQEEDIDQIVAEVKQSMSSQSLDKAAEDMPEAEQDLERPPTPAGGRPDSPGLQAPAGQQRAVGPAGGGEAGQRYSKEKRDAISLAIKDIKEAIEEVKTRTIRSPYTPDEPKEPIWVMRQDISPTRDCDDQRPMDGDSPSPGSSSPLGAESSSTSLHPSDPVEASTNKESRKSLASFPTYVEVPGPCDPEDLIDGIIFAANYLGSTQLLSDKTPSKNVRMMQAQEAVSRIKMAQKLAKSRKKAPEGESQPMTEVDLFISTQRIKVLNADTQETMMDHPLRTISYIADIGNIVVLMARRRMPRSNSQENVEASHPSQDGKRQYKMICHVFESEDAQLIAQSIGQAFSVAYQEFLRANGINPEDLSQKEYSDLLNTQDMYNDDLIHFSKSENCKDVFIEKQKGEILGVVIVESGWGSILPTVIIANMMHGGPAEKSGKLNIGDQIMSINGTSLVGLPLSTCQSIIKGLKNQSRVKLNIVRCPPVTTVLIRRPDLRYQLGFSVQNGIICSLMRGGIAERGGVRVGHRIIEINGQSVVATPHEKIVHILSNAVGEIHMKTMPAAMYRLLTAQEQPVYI
Type: protein assay
Activity calls are given as the source filed them.
measurement_label: IC50

In [3]: df
Out[3]:
                                 cpd_smiles                  result
0  COc1ccc2nc(NC(=O)/C=C/c3ccc4c(c3)OCO4)sc2c1        19.5 µM (active)
1                CCC1=NNc2cccc3c(OC)ccc1c23       0.586 µM (active)
2          CCc1nc2sc3c(=O)cc(O)[nH]c3c2cc1C  > 56.8 µM (not active)
3  COc1ccc(Cl)cc1NC(=O)c1nnn(CC(=O)Nc2ccc(OC)c(OC)c2)c1N  > 56.8 µM (not active)
4  COc1cc(NC(=O)c2ccc(F)cc2)ccc1NC(=O)c1cc2ccccc2o1        4.02 µM (active)

---

Recorded below: AC50, system Cytochrome P450 3A4 (Homo sapiens, UniProt P08684).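 Further: CYP3A4 tested as one member of a cytochrome P450 panel screen.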
measurement_label: AC50

>>> df
                                    compound                  result
 0    Cc1ccc(-c2nnc(N(C)C(=O)c3cccnc3)s2)cc1  17.8 µM (inconclusive)
 1  COc1cc(NC(=O)c2cc3nc(-c4ccccc4)cc(-c4ccccc4)n3n2)cc(OC)c1OC    10 µM (inconclusive)
 2    Cn1c(N/N=C/c2c[nH]c3ccccc23)nc2ccccc21    20 µM (inconclusive)
 3    COc1ccc(CN2CN=C(Nc3nc4ccccc4s3)NC2)cc1    10 µM (inconclusive)
 4  CCOC(=O)O[C@]1(C(=O)COC(=O)CC)CC[C@@H]2[C@@H]3CCC4=CC(=O)C=C[C@@]4(C)[C@H]3[C@H](O)C[C@]21C  12.6 µM (inconclusive)
 5               COCCNc1ccnc(-c2c(C)noc2C)n1  31.6 µM (inconclusive)
 6           CC(C)NC(=Nc1ccc(Cl)cc1)c1cccnc1  22.4 µM (inconclusive)
 7     N#C/C(=C\NC(=S)c1ccncc1)c1nc2ccccc2s1  2.51 µM (inconclusive)
 8  C[C@@]1(C(NC(=O)Cc2ccccc2)c2ccc(-c3ccccc3)cc2)C[C@H]1C1CCCCC1 (stereo not given in full)  15.8 µM (inconclusive)
 9   Cn1c(SC2=CS(=O)(=O)c3ccccc32)nc2ccccc21  39.8 µM (inconclusive)
10   COC(=O)c1cc(OC)c(OC)cc1NC(=O)CSc1ccccc1  15.8 µM (inconclusive)
11          CN(C)c1nc(N)c(C(=O)NC(=N)N)nc1Cl    10 µM (inconclusive)
12  C/C(CC(=O)NCc1ccco1)=N\NC(=O)Cc1ccc(Cl)cc1  15.8 µM (inconclusive)
13  CCC/C=C(\CCC)C(NS(=O)(=O)c1ccc(C(F)(F)F)cc1)c1ccc(-c2ccccc2)cc1 (stereo not given)  3.98 µM (inconclusive)
14  COCCn1c(=O)c(-c2ccc(F)cc2)nc2cnc(OCc3ccccc3)nc21  12.6 µM (inconclusive)
15  COC(=O)[C@@H]1[C@@H](O)[C@@]2(O)c3c(OC)cc(OC)cc3O[C@@]2(c2ccc(OC)cc2)[C@H]1c1ccccc1    10 µM (inconclusive)
16  Cc1cc(C)cc(-n2nnnc2-c2cn(C)nc2C(F)(F)F)c1  15.8 µM (inconclusive)
17              O=C1CCN(S(=O)(=O)c2ccccc2)N1  28.2 µM (inconclusive)
18   COc1ccc(/C=C2\OC(=O)c3c(OC)cccc32)cc1OC    10 µM (inconclusive)
19  CS(=O)(=O)N1CCC2(CCCN(C(=O)Nc3cccc(C#N)c3)C2)CC1  25.1 µM (inconclusive)

Reference for the values: ChEMBL document CHEMBL1201862
